Kindly supply the reported protein stability index values for the records listed here.
B1: ZBED1 (parent)
chain: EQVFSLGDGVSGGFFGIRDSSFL

# Variants of: B1
# Assay overview: protein stability index of a GFP-peptide fusion (GPS, HEK-293T) (PSI 1-6); higher = more stable;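 note: lentivirally expressed fusions sorted by FACS into six bins by GFP to DsRed ratio, PSI derived from sequencing read proportions per bin multiplied by bin number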
# Condition set: c terminus: native
Number only, please.

// field: protein stability index; key: S5C ; value = 2.6

D19S has a reported protein stability index of 1.68

Recorded result, F4R , protein stability index: 4.16

Looking up F14Q , I found its protein stability index recorded as 4.45

The recorded protein stability index for F22A is 4.15

// F15K : protein stability index value = 4.1

Reported protein stability index of R18L : 2.78

// field: protein stability index; key: I17E ; value = 4.71

F4C has a reported protein stability index of 3.18

Form field protein stability index, entry R18H : 2.62

Q2F yielded protein stability index of 1.72

protein stability index recorded for this variant, F15D , is 4.15

In plain terms, F14G has a documented protein stability index of 4.44

In plain terms, F15W has a documented protein stability index of 2.88

The reported value for D8C in terms of protein stability index is 2.07

protein stability index for F14I is 3.21

Looking up L6S , I see its protein stability index listed as 4.12

Value of measured protein stability index for the entry V10M : 2.57

Briefly, protein stability index measured for G12Q : 3.52

Lab note: F14Y gave protein stability index of 3.18

The recorded protein stability index for L23R is 3.35

// protein stability index lookup, variant = R18Y , result: 2.49

The variant listed as G9Y shows protein stability index equal to 2.51

// sample G13K , its protein stability index was 3.08

The variant identified as S11Y registered its protein stability index at 2.17

response.value for V3F (field: protein stability index) = 2.52

Form: variant = G13W ; protein stability index = 1.82

GET /value?item= R18E &field=protein stability index returns 3.93

L6D has a reported protein stability index of 3.73

Input F14H . Output protein stability index: 4.24

Kindly note the recorded protein stability index for G16I , which is 1.57

Summary for this variant, Q2T : protein stability index is 3.04

Value of protein stability index reported for the variant F14E is 4.11
